molecular target: GlcNAc(b1-4)GlcNAc(b1-4)GlcNAc; test: glycan array binding signal (z-score within array); higher = stronger binding; details: glycan notation: IUPAC condensed, linker removed
The sample as a whole holds a higher share of the strongest signals than the screen did.
reported.property: glycan array binding signal (z-score)
Please reply with the value in numeric form only.

Query: glycan array binding signal (z-score); subject: MSMEG3662-2a (Mycobacterium smegmatis), A0QYH7_MYCS2 (protein) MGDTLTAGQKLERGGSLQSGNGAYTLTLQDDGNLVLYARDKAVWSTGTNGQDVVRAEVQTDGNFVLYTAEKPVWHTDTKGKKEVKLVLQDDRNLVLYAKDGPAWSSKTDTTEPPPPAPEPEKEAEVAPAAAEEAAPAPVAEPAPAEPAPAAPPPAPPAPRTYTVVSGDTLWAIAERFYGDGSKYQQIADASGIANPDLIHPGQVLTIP
3.59

Please give the measured glycan array binding signal (z-score) for this binder: BDCA-2 (Homo sapiens), Q8WTT0 (protein) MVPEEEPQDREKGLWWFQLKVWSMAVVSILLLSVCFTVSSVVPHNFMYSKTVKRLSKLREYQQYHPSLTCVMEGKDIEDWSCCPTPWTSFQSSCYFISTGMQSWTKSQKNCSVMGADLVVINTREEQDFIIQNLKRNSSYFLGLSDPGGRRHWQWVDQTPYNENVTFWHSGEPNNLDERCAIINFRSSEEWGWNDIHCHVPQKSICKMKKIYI
-0.228

Requested field: glycan array binding signal (z-score). Item: LCA (Lens culinaris), P02870 (protein) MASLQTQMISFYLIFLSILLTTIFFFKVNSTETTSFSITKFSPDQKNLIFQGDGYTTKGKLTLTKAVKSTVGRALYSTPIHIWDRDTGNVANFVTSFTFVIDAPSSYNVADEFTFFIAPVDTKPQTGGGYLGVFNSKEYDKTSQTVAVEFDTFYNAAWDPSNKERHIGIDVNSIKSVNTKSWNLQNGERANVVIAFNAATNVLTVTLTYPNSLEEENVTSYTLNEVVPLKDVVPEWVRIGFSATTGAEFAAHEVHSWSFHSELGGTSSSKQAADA
-0.184

Data request, read-out glycan array binding signal (z-score), for PP2A1 (Arabidopsis thaliana) (protein) MFRNQDSKYLIPVQKEAPPVTTLPMKASTVKSPHNCEAILRDADPPISLSSVNLSEQLRSGVFLKPKKQIKYWVDERNSNCFMLFAKNLSITWSDDVNYWTWFTEKESPNENVEAVGLKNVCWLDITGKFDTRNLTPGIVYEVVFKVKLEDPAYGWDTPVNLKLVLPNGKEKPQEKKVSLRELPRYKWVDVRVGEFVPEKSAAGEITFSMYEHAAGVWKKGLSLKGVAIRPKQHHHHHH
2.52

For the binder shown here, SEX4 (Arabidopsis thaliana), Q944A8 (protein) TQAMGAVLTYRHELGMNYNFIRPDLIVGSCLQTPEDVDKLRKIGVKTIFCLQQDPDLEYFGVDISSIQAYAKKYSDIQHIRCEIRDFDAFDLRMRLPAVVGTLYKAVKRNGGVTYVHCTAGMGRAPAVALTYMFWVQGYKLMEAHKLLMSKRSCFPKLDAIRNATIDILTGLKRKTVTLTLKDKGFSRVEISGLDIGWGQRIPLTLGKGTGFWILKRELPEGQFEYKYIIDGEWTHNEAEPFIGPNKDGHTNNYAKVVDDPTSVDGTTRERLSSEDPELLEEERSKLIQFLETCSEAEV , give the reported glycan array binding signal (z-score).
-0.388

Data request, read-out glycan array binding signal (z-score), for Sp8391B-bot-388-20-388 (Bacteroides ovatus) (protein) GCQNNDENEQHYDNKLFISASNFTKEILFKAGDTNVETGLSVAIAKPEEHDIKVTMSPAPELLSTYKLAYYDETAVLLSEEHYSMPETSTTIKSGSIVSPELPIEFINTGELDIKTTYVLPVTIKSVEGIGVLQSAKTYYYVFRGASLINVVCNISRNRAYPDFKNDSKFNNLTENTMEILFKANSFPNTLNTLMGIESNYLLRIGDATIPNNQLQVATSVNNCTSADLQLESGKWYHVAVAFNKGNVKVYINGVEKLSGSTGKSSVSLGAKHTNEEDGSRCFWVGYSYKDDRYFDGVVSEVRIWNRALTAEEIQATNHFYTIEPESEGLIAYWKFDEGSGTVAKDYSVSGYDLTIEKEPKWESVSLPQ
-0.077

State the recorded glycan array binding signal (z-score) for this entry: LcH (Lens culinaris), P02870 (protein) TETTSFSITKFSPDQQNLIFQGDGYTGKEGLTLTKVSKETGGRALYSTPIHIWDRDTVNVANFVTNGSQVFRESPNGYNVADGFTFFIAPVDTKPQTGGGYLGVFYNGKEYDKTSQTVAVEFDTFYNAAWDPSNKERHIGIDVNSIKSVNTKSWNLQNGVTSYTLNEVVPLKDVVPEWVRIGFSATTGAEFAAQEVHSWSFNSQLGHTSKS
-0.107

What value of glycan array binding signal (z-score) has been recorded for this entry: C-Reactive Protein (Homo sapiens), P02741 (protein) MEKLLCFLVLTSLSHAFGQTDMSRKAFVFPKESDTSYVSLKAPLTKPLKAFTVCLHFYTELSSTRGYSIFSYATKRQDNEILIFWSKDIGYSFTVGGSEILFEVPEVTVAPVHICTSWESASGIVEFWVDGKPRVRKSLKKGYTVGAEASIILGQEQDSFGGNFEGSQSLVGDIGNVNMWDFVLSPDEINTIYLGGPFSPNVLNWRALKYEVQGEVFTKPQLWP
1.94

Can you share its glycan array binding signal (z-score)? I mean this binder: rCnSL-proA (Clitocybe nebularis) (protein) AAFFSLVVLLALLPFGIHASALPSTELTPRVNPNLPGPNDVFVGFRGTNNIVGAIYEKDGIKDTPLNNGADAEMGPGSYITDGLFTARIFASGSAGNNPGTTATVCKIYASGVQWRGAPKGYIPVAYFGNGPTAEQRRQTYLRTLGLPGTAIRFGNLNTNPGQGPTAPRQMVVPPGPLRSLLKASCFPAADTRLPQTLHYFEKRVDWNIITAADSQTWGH
-0.208
